Values from PubChem BioAssay AID624344

Test: NFkB reporter suppression in cystic fibrosis bronchial cells – cell-based, uHTS hits, panel, cytotoxicity readout, dose response (AID 624344)
Settings: CF bronchial epithelial cells, PAF-induced NFkB reporter inhibition; with PAF, mean of runs
Calls of active or inactive are those of the source. How the calls were made is not given here.
Parameter call: string, one of active, inactive

Here are 2 compounds together with their reported answers.
COMPOUND | CAT
CN(Cc1ccco1)c1ncnc2ccc(-c3ccoc3)cc12 | active
O=C(Nc1nc2ccc(F)cc2s1)C1CCN(S(=O)(=O)c2cc([N+](=O)[O-])ccc2Cl)CC1 | active

Hi, do you know how COc1cc(C(=O)c2cc3c(cc2C)OCO3)cc(OC)c1OC came out in this test? inactive

Hi, do you know how Cc1cccc(N2CCN(C(=O)c3[nH]c(C(F)(F)F)nc3-c3ccccc3)CC2)c1C came out in this test? active

Hi, do you know how c1ccc2c(-c3cncc4ccccc34)cncc2c1 came out in this test? active

Hi, do you know how CCOC(=O)Cc1nnc2c(Nc3ccc(Cl)cc3)nc3nonc3n12 came out in this test? active

Hi, do you know how CNC(=O)COC(=O)c1ccccc1C(=O)c1ccc(Cl)c([N+](=O)[O-])c1 came out in this test? active

Hi, do you know how COc1ccc(/C=C/C(=O)c2cc(F)ccc2OC(=O)c2ccccc2C)cc1OC came out in this test? inactive

Hi, do you know how O=C(Oc1cc2oc(=O)cc(-c3ccccc3)c2cc1Cl)C1CCCCC1 came out in this test? active
